Tested on: vCap Cell
Assay: vCap cell growth inhibition, CellTiter-Glo, 72 h
Format: cell-based
Details: Homo sapiens, VCaP, 72 h, vCap cells, 72 h culture
pIC50: −log10 of the molar value.
Readout kind: pIC50

compound="CNC(=O)N1CCc2cc(C3CCN(C)C3)cc(N3CCCc4cc(-c5cnn(C)c5)c(C(F)F)cc43)c2C1 (centres unmarked) [Compound M001051]" result="< 6.00"
compound="CON1CCC(c2cc3c(c(N4CCCc5cc(-c6cnn(C)c6)c(C(F)F)cc54)c2)CN(C(=O)OC(C)(C)C)CC3)CC1 [Compound M001274]" result="< 6.00"
compound="CNC(=O)N1CCc2cc([C@H]3CC[C@@H](NS(C)(=O)=O)CC3)cc(N3CCCc4cc(-c5cnn(C)c5)c(C(F)F)cc43)c2C1 [Compound M001313]" result="> 6.00"
compound="CNC(=O)N1CCc2cc(C3CCN(CC(F)(F)F)C(=O)C3)cc(N3CCCc4cc(-c5cnn(C)c5)c(C(F)F)cc43)c2C1 (centres unmarked) [Compound M001253]" result="> 6.00"
compound="CNC(=O)N1CCc2cc(-c3ccn(C)c(=O)c3)cc(N3CCCc4cc(-c5cnn(C)c5)c(C(F)F)cc43)c2C1 [Compound M001125]" result="> 6.00"
